tested on: H3N2 Perth/16/2009; experiment: microbe, parasite or virus in culture; type: cell-based, influenza A virus; details: read-out: EC50 (μM) H3N2 Perth/16/2009
Bridge positions count the residues as written; N and C are the ends. Square brackets hold non-standard residues; d marks the D form. Peptide text beside a SMILES is read from it. S5 = C=CCCC[C@](C)(N)C(=O)O; Nle = CCCC[C@H](N)C(=O)O; Aib = CC(C)(N)C(=O)O
measured-endpoint: EC50

IN: Notebook entry, H3N2 Perth/16/2009 assay: EC50 of CCCC[C@H](NC(C)=O)C(=O)N[C@@H](CC(=O)O)C(=O)N[C@H](C(=O)N[C@@H](CC(N)=O)C(=O)N[C@@]1(C)CCCC=CCCC[C@@](C)(C(=O)N[C@@H](CC(C)C)C(=O)N[C@@H](C)C(=O)N[C@H](C(=O)NC(C)(C)C(=O)N[C@@H](C)C(=O)N[C@@H](CCC(N)=O)C(=O)N[C@@H](C)C(=O)N[C@H](C)C(N)=O)C(C)C)NC(=O)[C@H](CC(C)C)NC(=O)[C@H](CC(C)C)NC(=O)[C@H]([C@@H](C)O)NC1=O)C(C)C [SP-16] (Ac-[Nle]DVN[S5]TLL[S5]LAV[Aib]AQA[dA]-NH2; staple 5-9) = ?
OUT: 25 to 50 µM

* * *

experiment: in vitro; settings: dog, CC50, MDCK cells; run with Influenza B Florida/04/2006; Visual
Bridge positions count the residues as written; N and C are the ends. Square brackets hold non-standard residues; d marks the D form. Peptide text beside a SMILES is read from it. S5 = C=CCCC[C@](C)(N)C(=O)O; Nle = CCCC[C@H](N)C(=O)O; Aib = CC(C)(N)C(=O)O
measured-endpoint: CC50

IN: State the recorded CC50 for this entry: CCCC[C@H](NC(C)=O)C(=O)N[C@@H](CC(=O)O)C(=O)N[C@H](C(=O)N[C@@H](CC(N)=O)C(=O)N[C@@]1(C)CCCC=CCCC[C@@](C)(C(=O)N[C@@H](CC(C)C)C(=O)N[C@@H](C)C(=O)N[C@H](C(=O)NC(C)(C)C(=O)N[C@@H](C)C(=O)N[C@@H](CCC(N)=O)C(N)=O)C(C)C)NC(=O)[C@H](CC(C)C)NC(=O)[C@H](CC(C)C)NC(=O)[C@H]([C@@H](C)O)NC1=O)C(C)C [SP-6] (Ac-[Nle]DVN[S5]TLL[S5]LAV[Aib]AQ-NH2; staple 5-9)
OUT: > 100 µM

* * *

test system: Madin Darby canine kidney (MDCK) cells; conditions: run with Influenza A H7N9 A/Anhui/1/2013; Neutral Red
measured-endpoint: CC50

IN: Returns the measured CC50 for the input molecule. Input: NC(=O)c1ncn([C@@H]2O[C@H](CO)[C@@H](O)[C@H]2O)n1 [Ribavirin, reference compound]
OUT: > 1000 µM

* * *

// reported CC50 for each item listed
experiment: in vitro; settings: dog, CC50, MDCK cells; run with Influenza A H1N1 California/07/2009; Neutral Red
Bridge positions count the residues as written; N and C are the ends. Square brackets hold non-standard residues; d marks the D form. Peptide text beside a SMILES is read from it. R8 = C=CCCCCCC[C@@](C)(N)C(=O)O; S5 = C=CCCC[C@](C)(N)C(=O)O; Nle = CCCC[C@H](N)C(=O)O; Aib = CC(C)(N)C(=O)O

>>> endpoint_result("CCCC[C@H](NC(C)=O)C(=O)N[C@@H](CC(=O)O)C(=O)N[C@H](C(=O)N[C@@H](CC(N)=O)C(=O)N[C@@]1(C)CCCC=CCCC[C@@](C)(C(=O)N[C@@H](CC(C)C)C(=O)N[C@@H](C)C(=O)N[C@H](C(=O)NC(C)(C)C(=O)N[C@@H](C)C(=O)N[C@@H](CCC(N)=O)C(=O)N[C@@H](C)C(=O)N[C@H](C)C(N)=O)C(C)C)NC(=O)[C@H](CC(C)C)NC(=O)[C@H](CC(C)C)NC(=O)[C@H]([C@@H](C)O)NC1=O)C(C)C [SP-16] (Ac-[Nle]DVN[S5]TLL[S5]LAV[Aib]AQA[dA]-NH2; staple 5-9)")
"> 100 µM"
>>> endpoint_result("CCCC[C@H](NC(C)=O)C(=O)N[C@@H](CC(=O)O)C(=O)N[C@H](C(=O)N[C@@H](CC(N)=O)C(=O)N[C@]1(C)CCCCCCC=CCCC[C@@](C)(C(=O)N[C@@H](C)C(=O)N[C@@H](C)C(=O)N[C@@H](CCC(N)=O)C(N)=O)NC(=O)[C@H](C)NC(=O)[C@H](CC(C)C)NC(=O)[C@H](Cc2ccccc2)NC(=O)[C@H](CC(C)C)NC(=O)[C@H](CC(C)C)NC(=O)[C@H]([C@@H](C)O)NC1=O)C(C)C [SP-18] (Ac-[Nle]DVN[R8]TLLFLA[S5]AAQ-NH2; staple 5-12)")
"> 100 µM"

IN: What value of CC50 has been reported for the following compound? CCCC[C@H](NC(C)=O)C(=O)N[C@@H](CC(=O)O)C(=O)N[C@H](C(=O)N[C@@H](CC(N)=O)C(=O)N[C@@]1(C)CCCC=CCCC[C@@](C)(C(=O)N[C@@H](CC(C)C)C(=O)N[C@@H](C)C(=O)N[C@H](C(=O)NC(C)(C)C(=O)N[C@@H](C)C(=O)N[C@@H](CCC(N)=O)C(=O)N[C@@H](C)C(=O)N[C@H](C)C(=O)O)C(C)C)NC(=O)[C@H](CC(C)C)NC(=O)[C@H](CC(C)C)NC(=O)[C@H]([C@@H](C)O)NC1=O)C(C)C [SP-17] (Ac-[Nle]DVN[S5]TLL[S5]LAV[Aib]AQA[dA]-OH; staple 5-9)
OUT: > 100 µM

* * *

test: in vitro; conditions: dog, CC50, MDCK cells; run with Influenza A H3N2 Perth/16/2009; Visual
Bridge positions count the residues as written; N and C are the ends. Square brackets hold non-standard residues; d marks the D form. Peptide text beside a SMILES is read from it. S5 = C=CCCC[C@](C)(N)C(=O)O; Nle = CCCC[C@H](N)C(=O)O; Aib = CC(C)(N)C(=O)O
measured-endpoint: CC50

IN: Bench note: what CC50 did CCCC[C@H](NC(C)=O)C(=O)N[C@@H](CC(=O)O)C(=O)N[C@H](C(=O)N[C@@H](CC(N)=O)C(=O)N[C@@]1(C)CCCC=CCCC[C@@](C)(C(=O)N[C@@H](CC(C)C)C(=O)N[C@@H](C)C(=O)N[C@H](C(=O)NC(C)(C)C(=O)N[C@@H](C)C(=O)N[C@@H](CCC(N)=O)C(N)=O)C(C)C)NC(=O)[C@H](CC(C)C)NC(=O)[C@H](CC(C)C)NC(=O)[C@H]([C@@H](C)O)NC1=O)C(C)C [SP-6] (Ac-[Nle]DVN[S5]TLL[S5]LAV[Aib]AQ-NH2; staple 5-9) show?
OUT: > 100 µM

* * *

assay: in vitro; settings: dog, CC50 (μM) H1N1 California/07/2009, Cell cytotoxicity (CC), run with H1N1 California/07/2009
Bridge positions count the residues as written; N and C are the ends. Square brackets hold non-standard residues; d marks the D form. Peptide text beside a SMILES is read from it. S5 = C=CCCC[C@](C)(N)C(=O)O; Aib = CC(C)(N)C(=O)O
measured-endpoint: CC50

IN: Entry CC(=O)N[C@@H](Cc1ccccc1)C(=O)N[C@@H](CC(=O)O)C(=O)N[C@H](C(=O)N[C@@H](CC(N)=O)C(=O)N[C@@]1(C)CCCC=CCCC[C@@](C)(C(=O)N[C@@H](CC(C)C)C(=O)N[C@@H](CCCCN)C(=O)N[C@H](C(=O)NC(C)(C)C(=O)N[C@@H](C)C(=O)N[C@@H](CCC(N)=O)C(N)=O)C(C)C)NC(=O)[C@H](CC(C)C)NC(=O)[C@H](CC(C)C)NC(=O)[C@H]([C@@H](C)O)NC1=O)C(C)C [SP-4] (Ac-FDVN[S5]TLL[S5]LKV[Aib]AQ-NH2; staple 5-9) has what CC50?
OUT: > 100 µM

* * *

assay: in vitro; conditions: dog, CC50, run with Influenza A H3N2 Perth/16/2006 (so in the source); Visual
Bridge positions count the residues as written; N and C are the ends. Square brackets hold non-standard residues; d marks the D form. Peptide text beside a SMILES is read from it. S5 = C=CCCC[C@](C)(N)C(=O)O; Nle = CCCC[C@H](N)C(=O)O; Aib = CC(C)(N)C(=O)O
measured-endpoint: CC50

IN: # CC50 lookup, item CCCC[C@H](NC(C)=O)C(=O)N[C@@H](CC(=O)O)C(=O)N[C@H](C(=O)N[C@@H](CC(N)=O)C(=O)N[C@@]1(C)CCCC=CCCC[C@@](C)(C(=O)N[C@@H](CC(C)C)C(=O)N[C@@H](C)C(=O)N[C@H](C(=O)N[C@@H](CCC(N)=O)C(=O)N[C@@H](C)C(=O)NC(C)(C)C(=O)N[C@@H](C)C(=O)N[C@@H](C)C(N)=O)C(C)C)NC(=O)[C@H](CC(C)C)NC(=O)[C@H](CC(C)C)NC(=O)[C@H]([C@@H](C)O)NC1=O)C(C)C [SP-23] (Ac-[Nle]DVN[S5]TLL[S5]LAVQA[Aib]AA-NH2; staple 5-9)
OUT: > 100 µM
